assay: Half life in Balb/c mouse at 10 mg/kg, ip measured upto24 hrs by LC/MS/MS analysis; assay type: ADME, organism-based; conditions: in vivo, time 24 hrs
property_name: half-life (min)
Write the value in min as a bare number.

Item under review: CN1CCN(c2ccc(C(=O)Nc3cnc4[nH]cc(-c5cncc(F)c5)c4c3)cc2)CC1 . Reported half-life?
196

###

assay: AUC (0 to t) in Balb/c mouse at 10 mg/kg, ip measured upto24 hrs by LC/MS/MS analysis; format: ADME, organism-based; parameters: time 24 hrs, dose 10 mg/kg, route ip; details: in vivo
property_name: AUC(0-t) at 24 h (ng·h/mL)
Write the value in ng·h/mL as a bare number.

Item under review: CN1CCN(c2ccc(C(=O)Nc3cnc4[nH]cc(-c5cncc(F)c5)c4c3)cc2)CC1 . Reported AUC(0-t) at 24 h?
5010
